The following molecules are listed with their measured pIC50 values.
# METHOD_NOTES: Inhibition of bacterial IMP-1 using meropenem as substrate incubated for 1 hr by spectrometry analysis
# Design: species or system Bacteria
pIC50: −log10 of the molar value.

| MOLECULE | pIC50 |
| --- | --- |
| O=C(O)C(=O)CBr [BROMOPYRUVATE] | 4.54 |
| CN(C(=S)NN=C(c1ccccn1)c1ccccn1)C1CCCCC1 | 6.55 |

----------
# Tested on: Escherichia coli
# METHOD_NOTES: Antibacterial activity against Escherichia coli 06 assessed as reduction in bacterial growth incubated for 24 hrs by broth microdilution method
# Type: functional
The following compounds are listed with their measured MIC values.
ASSAY_METRIC: MIC (µg/mL)

| COMPOUND | RECORDED_MEASUREMENT |
| --- | --- |
| CC1(C)S[C@@H]2[C@H](NC(=O)[C@H](N)c3ccccc3)C(=O)N2[C@H]1C(=O)O [AMPICILLIN] | 8190 |
| CN(C(=S)NN=C(c1ccccn1)c1ccccn1)C1CCCCC1 | 16 |
| C[C@@H](O)[C@H]1C(=O)N2C(C(=O)O)=C(S[C@@H]3CN[C@H](C(=O)N(C)C)C3)[C@H](C)[C@H]12 [MEROPENEM] | 128 |
| Cc1nnc(SCC2=C(C(=O)O)N3C(=O)[C@@H](NC(=O)Cn4cnnn4)[C@H]3SC2)s1 [CEFAZOLIN] | 4100 |
| CO/N=C(\C(=O)N[C@@H]1C(=O)N2C(C(=O)O)=C(COC(C)=O)CS[C@H]12)c1csc(N)n1 [CEFOTAXIME] | 8190 |
| CO/N=C(\C(=O)N[C@@H]1C(=O)N2C(C(=O)O)=C(CSc3nc(=O)c(O)nn3C)CS[C@H]12)c1csc(N)n1 [CEFTRIAXONE] | 16000 |
